Test system: P388
Assay: Cytotoxicity against mouse P388 cells after 72 hrs by MTT assay
Type: functional, cell-based
Details: P388, 72 h
parameter: pIC50
The meaning of pIC50 here: minus log10 of the concentration in molar units.

structure as smiles | pIC50
C/C=C(\Cl)C(=O)[C@@](C)(O)[C@H]1CC(=O)C(C)=C2C=C(/C=C/[C@@H](C)[C@@H](C)O)OC=C21 | 6.15
C[C@H](O)[C@@H](C)/C=C/C1=CC2=C(Cl)C(=O)[C@](C)(O)[C@@H](O)[C@@H]2CO1 | 4.49
O=c1[nH]cc(F)c(=O)[nH]1 | 5.77

Continue with the compound presented below.
Problem: For the compound shown here, `C/C=C(\C)C(=O)C[C@H]1C2=COC(/C=C/[C@@H](C)[C@@H](C)O)=CC2=C(Cl)C(=O)[C@@]1(C)O` , give the reported pIC50.
Solution: 5.96
